- assaySystem: DPP IV (Homo sapiens, UniProt P27487)
- Sequence (P27487 whole entry, species assumed): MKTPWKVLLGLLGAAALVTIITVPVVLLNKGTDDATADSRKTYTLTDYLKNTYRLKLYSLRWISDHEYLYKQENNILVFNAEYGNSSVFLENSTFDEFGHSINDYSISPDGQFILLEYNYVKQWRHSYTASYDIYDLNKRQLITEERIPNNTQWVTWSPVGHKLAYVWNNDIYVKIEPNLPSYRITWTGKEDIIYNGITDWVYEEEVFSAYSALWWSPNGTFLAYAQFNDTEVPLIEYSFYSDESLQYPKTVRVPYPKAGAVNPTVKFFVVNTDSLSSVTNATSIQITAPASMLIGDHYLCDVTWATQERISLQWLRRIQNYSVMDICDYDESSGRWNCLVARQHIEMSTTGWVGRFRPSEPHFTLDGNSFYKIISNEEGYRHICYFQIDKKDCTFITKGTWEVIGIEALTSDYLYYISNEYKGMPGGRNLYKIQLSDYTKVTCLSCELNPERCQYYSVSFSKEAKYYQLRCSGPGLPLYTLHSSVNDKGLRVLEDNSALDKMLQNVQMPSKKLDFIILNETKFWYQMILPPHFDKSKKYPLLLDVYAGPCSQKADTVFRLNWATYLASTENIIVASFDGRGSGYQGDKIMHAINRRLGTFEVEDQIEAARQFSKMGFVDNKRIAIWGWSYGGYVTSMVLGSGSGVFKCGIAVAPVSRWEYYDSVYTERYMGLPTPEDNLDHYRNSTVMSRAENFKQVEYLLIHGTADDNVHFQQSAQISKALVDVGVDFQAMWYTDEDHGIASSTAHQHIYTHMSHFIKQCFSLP
- testMethodNotes: Stability against DPP IV enzyme
- Assay type: in vitro ADME
- conditionDescription: 2 μM peptidomimetic, 37° C., 24 h
metricName: % degradation of peptidomimetics in 24 h when incubated with DPP-IV enzyme (%)

compound	assaySystem	observedMeasurement
CCc1cc(OC)ccc1-c1ccc(CC(NC(=O)[C@H](CC(=O)O)NC(=O)[C@H](CO)NC(=O)[C@@H](NC(=O)[C@H](Cc2ccccc2)NC(=O)[C@@H](NC(=O)CNC(=O)[C@H](CCC(N)=O)NC(=O)[C@H](CO)NC(=O)[C@@H](N)Cc2c[nH]cn2)[C@@H](C)O)[C@@H](C)O)C(=O)NC(CCCc2ccccc2F)C(N)=O)cc1 (single isomer, unassigned)	DPP IV (Homo sapiens, UniProt P27487)	77
CCc1cc(OC)ccc1-c1ccc(CC(NC(=O)[C@H](CC(=O)O)NC(=O)[C@H](CO)NC(=O)[C@@H](NC(=O)C(C)(Cc2ccccc2F)NC(=O)[C@@H](NC(=O)CNC(=O)C(CCC#N)NC(=O)C(C)(C)NC(=O)[C@@H](N)Cc2c[nH]cn2)[C@H](C)O)[C@H](C)O)C(=O)N(C)C(CCCc2ccccc2)C(N)=O)cc1 (single isomer, unassigned)	DPP IV (Homo sapiens, UniProt P27487)	76

====

- testMethodNotes: Stability in simulated gastric fluid
- Format: in vitro ADME
- conditionDescription: 2 μM peptidomimetic, simulated gastric fluid pH 1.5, 37° C.; read-out: half-life (t1/2) when incubated with simulated gastric fluid
- Procedure: Reactions were terminated by the addition of TFA/H2O (15 mL, 10% (v/v)). […] The column was equilibrated with TFA/H20, at a flow rate of 1 mL/min.
Non-standard residues stand in square brackets, D forms with d. Residues, ends and D or L forms follow the SMILES beside them. ξ: configuration not given here. *: point of attachment. X3 = CCc1cc(OC)ccc1-c1ccc(CC(N*)C(=S)NC(CCCc2ccccc2)C(N)=O)cc1; Leu(5,5,5,5',5',5'-F6) = N[C@@H](CC(C(F)(F)F)C(F)(F)F)C(=O)O; ξBip(2'-Et-4'-OMe) = CCc1cc(OC)ccc1-c1ccc(CC(N)C(=O)O)cc1; ξNva(5-(4-Cl-2-MePh)) = Cc1cc(Cl)ccc1CCCC(N)C(=O)O; ξNva(5-(3-Cl-Ph)) = NC(CCCc1cccc(Cl)c1)C(=O)O; ξαMePhe(2-F) = CC(N)(Cc1ccccc1F)C(=O)O; aThr = C[C@H](O)[C@H](N)C(=O)O; Aib = CC(C)(N)C(=O)O

compound	operator	half-life at 2 μM / h
CCc1cc(OC)ccc1-c1ccc(CC(NC(=O)[C@H](CC(=O)O)NC(=O)[C@H](CO)NC(=O)[C@@H](NC(=O)[C@H](Cc2ccccc2)NC(=O)[C@@H](NC(=O)CNC(=O)[C@H](CCC(N)=O)NC(=O)[C@H](CO)NC(=O)[C@@H](N)Cc2c[nH]cn2)[C@@H](C)O)[C@@H](C)O)C(=O)NC(CCCc2cccc(Cl)c2)C(N)=O)cc1 (some centres unmarked) [compound 7] (H-HSQGTFTSD[ξBip(2'-Et-4'-OMe)][ξNva(5-(3-Cl-Ph))]-NH2)	=	7
CCc1cc(OC)ccc1-c1ccc(CC(NC(=O)[C@H](CC(=O)O)NC(=O)[C@H](CO)NC(=O)[C@@H](NC(=O)[C@H](Cc2ccccc2)NC(=O)[C@@H](NC(=O)CNC(=O)[C@H](CCC(N)=O)NC(=O)[C@H](CO)NC(=O)[C@@H](N)Cc2c[nH]cn2)[C@@H](C)O)[C@@H](C)O)C(=O)NC(CCCc2ccc(Cl)cc2C)C(N)=O)cc1 (some centres unmarked) [compound 8] (H-HSQGTFTSD[ξBip(2'-Et-4'-OMe)][ξNva(5-(4-Cl-2-MePh))]-NH2)	>	24
CCc1cc(OC)ccc1-c1ccc(CC(NC(=O)[C@H](CC(=O)O)NC(=O)[C@H](CO)NC(=O)[C@@H](NC(=O)[C@H](Cc2ccccc2)NC(=O)[C@@H](NC(=O)CNC(=O)C(CCC#N)NC(=O)C(C)(C)NC(=O)[C@@H](N)Cc2c[nH]cn2)[C@@H](C)O)[C@@H](C)O)C(=O)NC(CCCc2ccc(OC)cc2Cl)C(N)=O)cc1 (single isomer, unassigned)	=	4
CCc1cc(OC)ccc1-c1ccc(CC(NC(=O)[C@H](CC(=O)O)NC(=O)[C@H](CO)NC(=O)[C@@H](NC(=O)C(C)(Cc2ccccc2F)NC(=O)[C@@H](NC(=O)CNC(=O)[C@H](CC(C(F)(F)F)C(F)(F)F)NC(=O)C(C)(C)NC(=O)[C@@H](N)Cc2c[nH]cn2)[C@H](C)O)[C@H](C)O)C(=S)NC(CCCc2ccccc2)C(N)=O)cc1 (some centres unmarked) [compound 219] (H-H[Aib][Leu(5,5,5,5',5',5'-F6)]G[aThr][ξαMePhe(2-F)][aThr]SD-X3)	>	24
CCc1cc(OC)ccc1-c1ccc(CC(CNC(CCCc2ccccc2F)C(N)=O)NC[C@H](CC(=O)O)NC(=O)[C@H](CO)NC(=O)[C@@H](NC(=O)C(C)(Cc2ccccc2F)NC(=O)[C@@H](NC(=O)CNC(=O)[C@H](CCC(N)=O)NC(=O)C(C)(C)NC(=O)[C@H](Cc2c[nH]cn2)NC(=O)OC)[C@H](C)O)[C@H](C)O)cc1 (single isomer, unassigned)	=	4

====

- testMethodNotes: Stability in liver microsomes
- Type: in vitro ADME
- conditionDescription: pH 7.8; 2 μM peptidomimetic, human liver microsomes, 37° C.; read-out: half-life (t1/2) when incubated with liver microsomes
Starred links: 1 amine or outer side, 2 acyl side, 3 side chain; linkers in the order of their positions; H or OH if unused. Non-standard residues stand in square brackets, D forms with d. Residues, ends and D or L forms follow the SMILES beside them. ξ: configuration not given here. ξBip(2'-Et-4'-OMe) = CCc1cc(OC)ccc1-c1ccc(CC(N)C(=O)O)cc1; X1 = O=C(C(CCCc1ccc(C(F)(F)F)cc1F)N[*:1])[*:2]
Entries and their half-life at 2 μM values follow.

molecule	half-life at 2 μM / h
CCc1cc(OC)ccc1-c1ccc(CC(C(=O)N(C)C(CCCc2ccccc2F)C(N)=O)N(C)C(=O)[C@H](CC(=O)O)N(C)C(=O)[C@H](CO)NC(=O)[C@@H](NC(=O)C(C)(Cc2ccccc2F)NC(=O)[C@@H](NC(=O)CNC(=O)C(CCC#N)NC(=O)C(C)(C)NC(=O)[C@@H](N)Cc2c[nH]cn2)[C@H](C)O)[C@H](C)O)cc1 (single isomer, unassigned)	1
CCc1cc(OC)ccc1-c1ccc(CC(NC(=O)[C@H](CC(=O)O)NC(=O)[C@H](CO)NC(=O)[C@@H](NC(=O)[C@H](Cc2ccccc2)NC(=O)[C@@H](NC(=O)CNC(=O)C(CCC#N)NC(=O)C(C)(C)NC(=O)[C@@H](N)Cc2c[nH]cn2)[C@@H](C)O)[C@@H](C)O)C(=O)NC(CCCc2ccccc2F)C(N)=O)cc1 (single isomer, unassigned)	0.5
CCc1cc(OC)ccc1-c1ccc(CC(NC(=O)[C@H](CC(=O)O)NC(=O)[C@H](CO)NC(=O)[C@@H](NC(=O)[C@H](Cc2ccccc2)NC(=O)[C@@H](NC(=O)CNC(=O)[C@H](CCC(N)=O)NC(=O)C(C)(C)NC(=O)[C@@H](N)Cc2c[nH]cn2)[C@@H](C)O)[C@@H](C)O)C(=O)NC(CCCc2ccc(OC)cc2Cl)C(N)=O)cc1 (single isomer, unassigned)	1
CCc1cc(OC)ccc1-c1ccc(CC(NC(=O)[C@H](CC(=O)O)NC(=O)[C@H](CO)NC(=O)[C@@H](NC(=O)C(C)(Cc2ccccc2)NC(=O)[C@@H](NC(=O)CNC(=O)[C@H](CC(C(F)(F)F)C(F)(F)F)NC(=O)C(C)(C)NC(=O)[C@@H](N)Cc2c[nH]cn2)[C@@H](C)O)[C@@H](C)O)C(=O)NC(CCCc2ccccc2)C(N)=O)cc1 (single isomer, unassigned)	0.5
CCc1cc(OC)ccc1-c1ccc(CC(CNC(CCCc2ccccc2)C(N)=O)NC[C@H](CC(=O)O)NC(=O)[C@H](CO)NC(=O)[C@@H](NC(=O)C(C)(Cc2ccccc2F)NC(=O)[C@@H](NC(=O)CNC(=O)[C@H](CCC(N)=O)NC(=O)C(C)(C)NC(=O)[C@H](Cc2c[nH]cn2)NC(=O)OC)[C@H](C)O)[C@H](C)O)cc1 (single isomer, unassigned)	2
CCc1cc(OC)ccc1-c1ccc(CC(CNC(CCCc2ccccc2)C(N)=O)NC[C@H](CC(=O)O)NC(=O)[C@H](CO)NC(=O)[C@@H](NC(=O)C(C)(Cc2ccccc2F)NC(=O)[C@@H](NC(=O)CNC(=O)[C@H](CCC(N)=O)NC(=O)C(C)(C)NC(=O)[C@H](Cc2c[nH]cn2)NC(=O)OC)[C@@H](C)O)[C@@H](C)O)cc1 (single isomer, unassigned)	2
CCc1cc(OC)ccc1-c1ccc(CC(NC(=O)[C@H](CC(=O)O)NC(=O)[C@H](CO)NC(=O)[C@@H](NC(=O)[C@H](Cc2ccccc2)NC(=O)[C@@H](NC(=O)CNC(=O)[C@H](CCC(N)=O)NC(=O)C(C)(C)NC(=O)[C@@H](N)Cc2c[nH]cn2)[C@@H](C)O)[C@@H](C)O)C(=O)NC(CCCc2cccc(Cl)c2)C(N)=O)cc1 (single isomer, unassigned)	1
CCc1cc(OC)ccc1-c1ccc(CC(NC(=O)[C@H](CC(=O)O)NC(=O)[C@H](CO)NC(=O)[C@@H](NC(=O)[C@H](Cc2ccccc2)NC(=O)[C@@H](NC(=O)CNC(=O)C(CCC#N)NC(=O)C(C)(C)NC(=O)[C@@H](N)Cc2c[nH]cn2)[C@@H](C)O)[C@@H](C)O)C(=O)NC(CCCc2ccc(Cl)cc2C)C(N)=O)cc1 (single isomer, unassigned)	0.5
CCc1cc(OC)ccc1-c1ccc(CC(NC(=O)[C@H](CC(=O)O)NC(=O)[C@H](CO)NC(=O)[C@@H](NC(=O)[C@H](Cc2ccccc2)NC(=O)[C@@H](NC(=O)CNC(=O)[C@H](CCC(N)=O)NC(=O)C2(C)CCCN2C(=O)[C@@H](N)Cc2c[nH]cn2)[C@@H](C)O)[C@@H](C)O)C(=O)NC(CCCc2ccc(Cl)cc2C)C(N)=O)cc1 (single isomer, unassigned)	1
CCc1cc(OC)ccc1-c1ccc(CC(NC(=O)[C@H](CC(=O)O)NC(=O)[C@H](CO)NC(=O)[C@@H](NC(=O)[C@H](Cc2ccccc2)NC(=O)[C@@H](NC(=O)CNC(=O)[C@H](CCC(N)=O)NC(=O)[C@H](CO)NC(=O)[C@@H](N)Cc2c[nH]cn2)[C@@H](C)O)[C@@H](C)O)C(=O)NC(CCCc2ccc(C(F)(F)F)cc2F)C(N)=O)cc1 (some centres unmarked) [compound 49] (H-HSQGTFTSD[ξBip(2'-Et-4'-OMe)][X1]-NH2)	1
CCc1cc(OC)ccc1-c1ccc(CC(C(=O)N(C)C(CCCc2ccccc2)C(N)=O)N(C)C(=O)[C@H](CC(=O)O)N(C)C(=O)[C@H](CO)NC(=O)[C@@H](NC(=O)C(C)(Cc2ccccc2F)NC(=O)[C@@H](NC(=O)CNC(=O)C(CCC#N)NC(=O)C(C)(C)NC(=O)[C@@H](N)Cc2c[nH]cn2)[C@H](C)O)[C@H](C)O)cc1 (single isomer, unassigned)	1
